- Tested on: SNB-75 CNS
- TEST DESCRIPTION: NCI tumour cell line growth inhibition, 48 h
Tag: true if measured TGI is not below 50 µM, false if it is.

Is TGI for CCCCCCCC(=O)OCC1OC(n2cc(F)c(=O)[nH]c2=O)C(NC(=O)OCc2ccccc2)C(O)C1O (stereo not given) at or above 50 µM? true

Is TGI for C[C@]12CC[C@H](O)CC1=CC[C@@H]1[C@@H]2CC[C@]2(C)c3nc(Cl)ccc3C[C@@H]12 at or above 50 µM? false

Is TGI for Cc1ccc(-c2cc(=O)c3cc(C)c(C)c(C(=O)O)c3o2)cc1 at or above 50 µM? true

Is TGI for C/C(=N\NC(=O)c1cccnc1)c1cccc(/C(C)=N/NC(=O)c2cccnc2)n1.CC(=O)[O-].CC(=O)[O-].[Zn+2] at or above 50 µM? true

Is TGI for O=C(NC12CC3CC(CC(C3)C1)C2)C(=O)c1c[nH]c2ccc([N+](=O)[O-])cc12 at or above 50 µM? true

Is TGI for O=[P+](O)c1cc2ccccc2c2ccccc12 at or above 50 µM? true

Is TGI for COC12OC3CC4(C)C(=CC3OC(OC(C)C1O)C2O)CCC1C4CCC2(C)C(c3ccc(=O)oc3)CCC12O (stereo not given) at or above 50 µM? false

Is TGI for Cc1cc2c(cc1-c1cc3c(cc1C)C(C(C)C)=C(O)C(=O)/C3=C\Nc1c(C)n(C)n(-c3ccccc3)c1=O)/C(=C/Nc1c(C)n(C)n(-c3ccccc3)c1=O)C(=O)C(O)=C2C(C)C at or above 50 µM? true

###

- Tested on: LOX IMVI melanoma
- TEST DESCRIPTION: NCI tumour cell line growth inhibition, 48 h; in the data active means GI50 below about 0.43 µM; inactive means the rest
# valid calls are Yes (active), No (inactive); nothing else

Each molecule tested received a call. Report the one for COc1cc2c(cc1OC)C(CC1(O)CCCCC1)N(S(=O)(=O)c1ccc(C)cc1)CC2 (configuration not stated) . No

Each molecule tested received a call. Report the one for O=C(O)c1ccc2c3c(ncnc13)-c1ccccc1C2=O . No

Each molecule tested received a call. Report the one for CN1CCN(C(=O)c2c(NC(=O)NS(=O)(=O)c3ccccc3)sc3c2CCCCC3)CC1 . No

Each molecule tested received a call. Report the one for CCCCOC(=O)c1ccc(NC(=O)CCl)cc1 . No

Each molecule tested received a call. Report the one for CC1(C)N=C(N)N=C(N)N1c1ccc(CCc2ccc(Cl)cc2S(=O)(=O)F)c(Cl)c1 . No

Each molecule tested received a call. Report the one for O=C(NCCN1CCC(O)CC1)c1cc2c(o1)C(=O)c1ccccc1C2=O . Yes

Each molecule tested received a call. Report the one for COc1ccc2nc3cc([N+](=O)[O-])ccc3c(NCCCN(CCO)CCO)c2c1 . No

Each molecule tested received a call. Report the one for CC1(C)CCC[C@]2(C)c3cc(O)ccc3CC[C@@H]12 . No

Each molecule tested received a call. Report the one for COc1cc(-c2csc(NC(=O)Nc3cc(C(F)(F)F)cc(C(F)(F)F)c3)n2)cc(OC)c1OC . No

Each molecule tested received a call. Report the one for O=c1oc(-c2ccccc2)cc2cccc(O)c12 . No

Each molecule tested received a call. Report the one for c1cncc(-c2nc3ccccc3s2)c1 . No

Each molecule tested received a call. Report the one for O=C1c2cc(-c3ccccc3)ccc2-c2c1c1ccc([N+](=O)[O-])cc1c(=O)n2CCCBr . No
